molecular target: HLA-A*02:01 (Homo sapiens, UniProt P04439, D140Y/D185E/D98H/E176V/E277Q/G131W/G231S/I119V/I121R/I166T/I218V/L300P/L318F/N151K/N90K/P208A/P217A/Q86G/Q94H/R138H/R169H/T345S); assay: MHC binding assay (UV-ligand exchange, ELISA of exchange yield); conditions: binding to HLA-A*02:01, UV-ligand exchange
Readout Name: Peptide exchange (MHC class I binding score, peptide exchange yield)

>>> recorded_measurement("332 (YLISELEAA; listed as Homo sapiens) [compound 332]")
"“+++” (≥50 = +++)"
>>> recorded_measurement("32 (KLDDLTQDLTV; listed as Homo sapiens) [compound 32]")
"“++” (≥20% = ++)"
>>> recorded_measurement("99 (ALVSKGLATV; listed as Homo sapiens) [compound 99]")
"“++” (≥20% = ++)"
>>> recorded_measurement("252 (LLIGTDVSL; listed as Homo sapiens) [compound 252]")
"“+++” (≥50 = +++)"
>>> recorded_measurement("387 (ALFQATAEV; listed as Homo sapiens) [compound 387]")
"“++++” (≥75% = ++++)"

We next turn to a different substance, shown below.
Endpoint output: Peptide exchange (MHC class I binding score, peptide exchange yield) of 526 (RLAEVGQYEQV; listed as Homo sapiens) [compound 526] . Value?
“++” (≥20% = ++)

* * *

molecular target: HLA-A*02:01 (Homo sapiens, UniProt P04439, D140Y/D185E/D98H/E176V/E277Q/G131W/G231S/I119V/I121R/I166T/I218V/L300P/L318F/N151K/N90K/P208A/P217A/Q86G/Q94H/R138H/R169H/T345S); assay: MHC binding assay (UV-ligand exchange, ELISA of exchange yield); conditions: binding to HLA-A*02:01, UV-ligand exchange
Readout Name: Peptide exchange (MHC class I binding score, peptide exchange yield)

>>> recorded_measurement("476 (ALMERTGYSMV; listed as Homo sapiens) [compound 476]")
"“+++” (≥50 = +++)"
>>> recorded_measurement("428 (KLGHTDILVGV; listed as Homo sapiens) [compound 428]")
"“++” (≥20% = ++)"
>>> recorded_measurement("103 (TLAEEVVAL; listed as Homo sapiens) [compound 103]")
"“+++” (≥50 = +++)"
>>> recorded_measurement("227 (ALMNTLLYL; listed as Homo sapiens) [compound 227]")
"“++” (≥20% = ++)"
>>> recorded_measurement("615 (VLPPDTDPA; listed as Homo sapiens) [compound 615]")
"“++” (≥20% = ++)"
>>> recorded_measurement("594 (IMLKGDNITL; listed as Homo sapiens) [compound 594]")
"“+++” (≥50 = +++)"
>>> recorded_measurement("432 (TLIEESAKV; listed as Homo sapiens) [compound 432]")
"“++” (≥20% = ++)"
>>> recorded_measurement("280 (VLPDPEVLEAV; listed as Homo sapiens) [compound 280]")
"“+++” (≥50 = +++)"

Please report the recorded Peptide exchange (MHC class I binding score, peptide exchange yield) for 477 (ALLPASGQIAL; listed as Homo sapiens) [compound 477] .
“+++” (≥50 = +++)
